target: Wild-type RET kinase (Homo sapiens, UniProt P07949); assay: HTRF method for testing the inhibitory activity of compounds against RET; type: biochemical; conditions: HTRF; read-out: Wild-type RET kinase
Sequence (P07949 29-1114): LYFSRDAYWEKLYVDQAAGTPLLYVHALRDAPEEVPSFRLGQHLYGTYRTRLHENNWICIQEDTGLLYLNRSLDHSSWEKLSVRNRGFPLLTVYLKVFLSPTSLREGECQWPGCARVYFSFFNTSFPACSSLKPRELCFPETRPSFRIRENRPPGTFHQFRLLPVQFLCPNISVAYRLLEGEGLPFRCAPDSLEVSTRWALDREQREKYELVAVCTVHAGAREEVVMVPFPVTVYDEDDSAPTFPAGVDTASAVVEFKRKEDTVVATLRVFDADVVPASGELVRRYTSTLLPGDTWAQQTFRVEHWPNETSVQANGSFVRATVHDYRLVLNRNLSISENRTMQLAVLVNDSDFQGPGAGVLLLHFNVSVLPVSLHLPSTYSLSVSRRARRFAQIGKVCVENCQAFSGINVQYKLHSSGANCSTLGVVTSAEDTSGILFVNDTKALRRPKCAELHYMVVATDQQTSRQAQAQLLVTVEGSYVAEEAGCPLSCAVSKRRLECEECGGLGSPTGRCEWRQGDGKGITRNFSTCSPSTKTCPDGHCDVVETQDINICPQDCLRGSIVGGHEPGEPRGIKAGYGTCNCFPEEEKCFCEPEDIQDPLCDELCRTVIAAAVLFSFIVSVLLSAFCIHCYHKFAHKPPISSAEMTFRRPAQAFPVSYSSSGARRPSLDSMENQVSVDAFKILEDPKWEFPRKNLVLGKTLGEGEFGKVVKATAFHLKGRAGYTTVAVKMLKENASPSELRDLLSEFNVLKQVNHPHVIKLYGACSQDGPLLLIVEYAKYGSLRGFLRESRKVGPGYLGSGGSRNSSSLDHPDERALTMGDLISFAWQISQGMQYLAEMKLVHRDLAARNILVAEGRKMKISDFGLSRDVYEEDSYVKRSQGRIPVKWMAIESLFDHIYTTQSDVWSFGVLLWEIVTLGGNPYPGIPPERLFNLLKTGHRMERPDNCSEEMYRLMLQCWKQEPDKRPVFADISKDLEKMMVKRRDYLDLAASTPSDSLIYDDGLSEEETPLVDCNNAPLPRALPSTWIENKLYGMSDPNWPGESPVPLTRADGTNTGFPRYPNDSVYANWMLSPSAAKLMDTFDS
pIC50: −log10 of the molar value.
The compounds listed here are annotated with their pIC50.

SMILES_DATA | pIC50
COc1ccc(CN2C3CC2CN(c2cnc(-c4cc(N(C)CCN(C)C)cn5ncc(C#N)c45)cn2)C3)cn1 | 7.98
COc1ccc(CN2C3CC2CN(c2cnc(-c4cc(OCCN5CC6CC(C5)N6)cn5ncc(C#N)c45)cn2)C3)cn1 | 8.91
CCCCNc1cc(-c2ccc(N3CC4CC(C3)N4Cc3ccc(OC)nc3)nc2)c2c(C#N)cnn2c1 | 9.43
CNC(=O)c1cnn2cc(-c3cnn(C)c3)cc(-c3ccc(N4CCN(Cc5ccc(OC)nc5)CC4)nc3)c12 | 6.17
